Could you please report measured EC50 for the items listed next?
# System: HT-29
# ASSAY NOTES: Cytotoxicity against human HT-29 colon cell line.
# Type: functional
# STATED CONDITIONS: read-out: ED50 (the source's name)
A number alone suffices; assume µM.

Qu. Which measured EC50 value corresponds to `COc1cc(CCc2ccc(SC)cc2)cc(OC)c1OC` ?
Ans. 0.4

Qu. Similarly, `CCCOc1ccc(/C=C\c2cc(OC)c(OC)c(OC)c2)cc1` ?
Ans. 0.028

Qu. Similarly, `COc1ccc(C(=O)c2cc(OC)c(OC)c(OC)c2)cc1` ?
Ans. 1.3

Qu. Similarly, `COc1ccc(/C(=C\c2cc(OC)c(OC)c(OC)c2)C(=O)O)cc1` ?
Ans. 5.9

Qu. Similarly, `COc1ccc(/C=C(/C(=O)O)c2cc(OC)c(OC)c(OC)c2)cc1` ?
Ans. 8.4

Qu. Similarly, `COc1cc(/C=C\c2ccc(C(C)C)cc2)cc(OC)c1OC` ?
Ans. 2.4

Qu. Similarly, `COc1ccc(/C=C\c2cc(OC)c(O[Si](C)(C)C(C)(C)C)c(OC)c2)cc1` ?
Ans. 9

Qu. Similarly, `COc1ccc(/C=C/c2cc(OC)c(OCc3ccccc3)c(OC)c2)cc1` ?
Ans. 17.8

Qu. Similarly, COc1ccc(C2Cc3cc(OC)c(OC)c(OC)c3C2)cc1 (stereo unspecified) ?
Ans. 12.8

Qu. Similarly, `CCOc1ccc(CCc2cc(OC)c(OC)c(OC)c2)cc1` ?
Ans. 0.18

Qu. Similarly, `COc1cc(/C=C/c2ccc(C)cc2)cc(OC)c1OC` ?
Ans. 0.9

Qu. Similarly, `CCOc1ccc(/C=C\c2cc(OC)c(OC)c(OC)c2)cc1` ?
Ans. 1.8

Qu. Similarly, COc1ccc(/C=C/c2cc(OC)cc(OC)c2)cc1 [TRISMETHOXYRESVERATROL] ?
Ans. 6.9

Qu. Similarly, COc1ccc(CC2c3cc(OC)c(OC)c(OC)c3CCN2C)cc1 (stereo unspecified) ?
Ans. 9.7

Qu. Similarly, `COc1ccc(/C=C/c2cc(OC)c(OC(C)=O)c(OC)c2)cc1` ?
Ans. 11.7

Qu. Similarly, `CCN(CC)CCOc1ccc(CCc2cc(OC)c(OC)c(OC)c2)cc1` ?
Ans. 5.2

Qu. Similarly, `COc1ccc(CCc2cc(OC)c(OC)c(OC)c2)cc1` ?
Ans. 2.5

Qu. Similarly, `COc1cc2ccc3c(OC)cccc3c2c(OC)c1OC` ?
Ans. 9.3

Qu. Similarly, `COc1ccc(Cc2c3cc(OC)c(OC)c(OC)c3cc[n+]2C)cc1` ?
Ans. 20.5

Qu. Similarly, COc1ccc(/C=C\c2cc(OC)c(OC)c(OC)c2)cc1O [COMBRETASTATIN A4] ?
Ans. 0.01

Qu. Similarly, COc1ccc(/C=C\c2cc(OC)cc(OC)c2)cc1 [8Z-3,4',5-TRIMETHOXYSTILBENE] ?
Ans. 0.34

Qu. Similarly, `CNC(=O)/C(=C/c1ccc(OC)cc1)c1cc(OC)c(OC)c(OC)c1` ?
Ans. 2.6

Qu. Similarly, `COc1ccc(Cc2cc(OC)c(OC)c(OC)c2)cc1` ?
Ans. 1.3
